System: MDA-MB-468 breast
method_summary: NCI-60 one-dose screen, 48 h
assay_setup: 10 µM unless noted
The panel holds about 83,000 compounds, 20% with a hit somewhere; the sample as a whole holds those more often. Calls of active or inactive are those of the source. Rule for the calls: active = growth percent below 10; inactive = the rest.
Your reply should match one of these outcome classes. active, inactive

# compound, assayed_system, category_label
rows = [
    ("CC1=CC(=O)C=CC1(C)C(Cl)(Cl)Cl (centres undefined)", "MDA-MB-468 breast", "inactive"),
    ("NC(=O)[C@@H]1Cc2ccccc2CN1C(=O)c1ccc2c(c1)Cc1ccccc1-2", "MDA-MB-468 breast", "inactive"),
    ("Cn1cc(-c2nc(-c3c[nH]c4ncccc34)cs2)c2cccnc21", "MDA-MB-468 breast", "active"),
]

Q: Could you please tell me the result logged for CN(C)c1cccc2c(S(=O)(=O)/N=C(\N)Nc3nc4ccccc4s3)cccc12 in this assay?
Result: active

Q: Could you please tell me the result logged for CCc1ccc(NC(=O)N[C@@H](Cc2cccc(F)c2)C(=O)N[C@@H]2C(=O)N3CCC[C@H]3C(=O)N3CCCC[C@H]3C(=O)N[C@@H](C)C(=O)N3C[C@H](C)C[C@H]3C(=O)O[C@H]2C)c(F)c1 in this assay?
Result: active

Q: Could you please tell me the result logged for O=C1c2cc(S(=O)(=O)O)ccc2C(=O)c2c1cccc2[N+](=O)[O-] in this assay?
Result: inactive

Q: Could you please tell me the result logged for CCOC(=O)c1c(C)oc2ncnc(N3CCN(C(=O)COc4ccc(SC)cc4)CC3)c12 in this assay?
Result: inactive

Q: Could you please tell me the result logged for CC(=O)NC(N)=S in this assay?
Result: inactive

Q: Could you please tell me the result logged for CC(C)(C)c1ccc(C(=O)Nc2sc3c(c2C(N)=O)CCC(=O)C3)cc1 in this assay?
Result: active
